System: enterovirus D68
protocol_details: Antiviral activity against enterovirus D68 US/MO/14-18949 infected in human RD cells assessed as reduction in virus induced cytopathic effect by neutral red staining based CPE assay
Type: functional, organism-based
protocol_conditions: Enterovirus D, US/MO/14-18949, RD
Reported pEC50 by item:
pEC50 is defined as minus the log10 of a concentration measured in mol/L.

>  <molecule>
CC(C)(C)[C@H](NC(=O)CC12CC3CC(CC(C3)C1)C2)C(=O)N1C[C@@H]2CCC[C@@H]2[C@H]1C(=O)N[C@H](C(=O)C(=O)NC1CC1)C1CCCCC1

>  <pEC50>
7.00

$$$$

Attention now shifts to the item below.
Challenge: Form field: reported pEC50 of "CCC[C@H](NC(=O)[C@@H]1[C@H]2CCC[C@H]2CN1C(=O)[C@@H](NC(=O)[C@@H](NC(=O)c1cnccn1)C1CCCCC1)C(C)(C)C)C(=O)C(=O)NC1CC1"
Response given: 6.43

* * *

Reported IC50 by item:
protocol_details: Inhibition of Enterovirus D68 US/KY/14-18953 2A protease expressed in Escherichia coli BL21(DE3) using Dabcyl-KIRIVNT/GPGEGGE-Edans as substrate incubated for 2 hrs by FRET assay
Quick note: unit goes after the number.

>  <molecule>
CC(C)(C)[C@H](NC(=O)CC12CC3CC(CC(C3)C1)C2)C(=O)N1C[C@@H]2CCC[C@@H]2[C@H]1C(=O)N[C@H](C(=O)C(=O)NC1CC1)c1ccccc1

>  <IC50>
230 nM

$$$$
>  <molecule>
CC(C)(C)[C@H](NC(=O)CC12CC3CC(CC(C3)C1)C2)C(=O)N1C[C@@H]2CCC[C@@H]2[C@H]1C(=O)N[C@@H](Cc1c[nH]c2ccccc12)C(=O)C(=O)NC1CC1

>  <IC50>
180 nM

$$$$
>  <molecule>
CCC[C@H](NC(=O)[C@@H]1[C@H]2CCC[C@H]2CN1C(=O)[C@@H](NC(=O)Cc1ccccc1)C(C)(C)C)C(=O)C(=O)NC1CC1

>  <IC50>
250 nM

$$$$
>  <molecule>
CC(C)(C)[C@H](NC(=O)CC12CC3CC(CC(C3)C1)C2)C(=O)N1C[C@@H]2CCC[C@@H]2[C@H]1C(=O)N[C@H](C(=O)C(=O)NC1CC1)c1ccc(F)cc1

>  <IC50>
350 nM

$$$$
>  <molecule>
CCC[C@H](NC(=O)[C@@H]1[C@H]2CCC[C@H]2CN1C(=O)[C@@H](NC(=O)OCc1ccccc1)C(C)(C)C)C(=O)C(=O)NC1CC1

>  <IC50>
760 nM

$$$$
>  <molecule>
CC(C)(C)[C@H](NC(=O)CC12CC3CC(CC(C3)C1)C2)C(=O)N1C[C@@H]2CCC[C@@H]2[C@H]1C(=O)N[C@@H](Cc1ccsc1)C(=O)C(=O)NC1CC1

>  <IC50>
120 nM

$$$$

Challenge: Form field: reported IC50 of "CC(C)(C)[C@H](NC(=O)CC12CC3CC(CC(C3)C1)C2)C(=O)N1C[C@@H]2CCC[C@@H]2[C@H]1C(=O)N[C@@H](Cc1ccc(F)cc1)C(=O)C(=O)NC1CC1"
Response given: 150 nM

Challenge: Query "CC(C)(C)[C@H](NC(=O)CC12CC3CC(CC(C3)C1)C2)C(=O)N1C[C@@H]2CCC[C@@H]2[C@H]1C(=O)NC1(C(=O)C(=O)NC2CC2)CCCCC1" next
Response given: 740 nM

Challenge: Query "CCC[C@H](NC(=O)[C@@H]1[C@H]2CCC[C@H]2CN1C(=O)[C@@H](NC(C)=O)C(C)(C)C)C(=O)C(=O)NC1CC1" next
Response given: 940 nM

Measured values drawn from ChEMBL document CHEMBL5370639 for this set.
